Several publications report IC50 on Serine/threonine-protein kinase PLK1 (Homo sapiens, UniProt P53350); those values are gathered here.

Asked: Field: IC50 (Serine/threonine-protein kinase PLK1 (Homo sapiens, UniProt P53350)). Entry: NCC(F)(F)CNC(=O)c1ccc(-c2c(F)cnc3[nH]c4cnc(-c5cccnc5)cc4c23)cc1
Given back: 100 to 1000 nM

Asked: Field: IC50 (Serine/threonine-protein kinase PLK1 (Homo sapiens, UniProt P53350)). Entry: CC[C@]12CN(C)CCN1c1nc(-n3ccnc3-c3ccccc3)ncc1N(C)C2=O
Given back: > 50000 nM

Asked: Field: IC50 (Serine/threonine-protein kinase PLK1 (Homo sapiens, UniProt P53350)). Entry: CC[C@@]12COCCN1c1nc(-c3snnc3-c3ccccc3)ncc1N(C)C2=O
Given back: > 50000 nM

Asked: Field: IC50 (Serine/threonine-protein kinase PLK1 (Homo sapiens, UniProt P53350)). Entry: CCCNc1cnc2[nH]c3cnc(-c4cccnc4)cc3c2c1
Given back: 1000 to 5000 nM

====

Several publications report IC50 on Serine/threonine-protein kinase PLK1 (Homo sapiens); those values are gathered here.

Asked: Field: IC50 (Serine/threonine-protein kinase PLK1 (Homo sapiens)). Entry: CC(C)(CO)COC(=O)c1cnc2[nH]c3cnc(-c4cccnc4)cc3c2c1
Given back: > 5 µM

Asked: Field: IC50 (Serine/threonine-protein kinase PLK1 (Homo sapiens)). Entry: CC1CN(C2CCCC2)c2nc(Nc3ccc(C(=O)NC4CCCCC4)c(Cl)c3)ncc2N(C)C1=O (racemic)
Given back: > 5 µM

Asked: Field: IC50 (Serine/threonine-protein kinase PLK1 (Homo sapiens)). Entry: CCN(CC)CCn1nc(C)c(-c2cnc3[nH]c4cnc(-c5cccnc5)cc4c3c2)c1C
Given back: 1 to 5 µM

Asked: Field: IC50 (Serine/threonine-protein kinase PLK1 (Homo sapiens)). Entry: CC1CN(C2CCCC2)c2nc(Nc3ccc(O)c(NC(=O)c4ccncc4)c3)ncc2N(C)C1=O (racemic)
Given back: 0.5 to 5 µM

Asked: Field: IC50 (Serine/threonine-protein kinase PLK1 (Homo sapiens)). Entry: CC(=O)Nc1ccc2c(c1)/C(=C\c1ccc3cn[nH]c3c1)C(=O)N2
Given back: 5 to 50 µM

Asked: Field: IC50 (Serine/threonine-protein kinase PLK1 (Homo sapiens)). Entry: CN(C)Cc1cnc(F)cc1-c1cccc2cc(-c3ccnc(NCCN4CCNC4=O)n3)sc12
Given back: ~0.025 µM

Asked: Field: IC50 (Serine/threonine-protein kinase PLK1 (Homo sapiens)). Entry: CCN1CCC(NC(=O)c2ccc(Nc3ncc4c(n3)N(C3CCCC3)CC(C)C(=O)N4C)cc2Cl)CC1 (racemic)
Given back: 0.5 to 5 µM

Asked: Field: IC50 (Serine/threonine-protein kinase PLK1 (Homo sapiens)). Entry: CCCN(C)C(=O)c1cnc2[nH]c3cnc(-c4cccnc4)cc3c2c1
Given back: > 5 µM

Asked: Field: IC50 (Serine/threonine-protein kinase PLK1 (Homo sapiens)). Entry: CC[C@@]12CCCN1c1nc(-n3ccnc3-c3ccccn3)ncc1N(C)C2=O
Given back: 10 to 50 µM

Asked: Field: IC50 (Serine/threonine-protein kinase PLK1 (Homo sapiens)). Entry: CC[C@@H]1C(=O)N(C)c2cnc(-n3ccnc3-c3cnccn3)nc2N1C1CCOCC1
Given back: 1 to 10 µM

Asked: Field: IC50 (Serine/threonine-protein kinase PLK1 (Homo sapiens)). Entry: CC[C@@H]1C(=O)N(C)c2cnc(-n3ccnc3-c3ncccn3)nc2N1C(C)C
Given back: 1 to 10 µM

Asked: Field: IC50 (Serine/threonine-protein kinase PLK1 (Homo sapiens)). Entry: COc1cnc2[nH]c3cnc(-c4cnn(C)c4)cc3c2c1
Given back: 1 to 5 µM

Asked: Field: IC50 (Serine/threonine-protein kinase PLK1 (Homo sapiens)). Entry: CC[C@@H]1C(=O)N(C)c2cnc(-n3cc(C(=O)N(C)C)cn3)nc2N1C1CCCC1
Given back: 1 to 10 µM

Asked: Field: IC50 (Serine/threonine-protein kinase PLK1 (Homo sapiens)). Entry: Cc1cc(C(=O)NC2CCN(C)CC2)ccc1Nc1ncc2c(n1)N(C1CCCC1)CC(C)(C)C(=O)N2C
Given back: < 0.5 µM

Asked: Field: IC50 (Serine/threonine-protein kinase PLK1 (Homo sapiens)). Entry: O=S1(=O)NCCCNc2nc(ncc2C#CCNS(=O)(=O)c2cccc(Cl)c2Cl)Nc2cccc1c2
Given back: > 10 µM

Asked: Field: IC50 (Serine/threonine-protein kinase PLK1 (Homo sapiens)). Entry: CC[C@@]12CCCN1c1nc(-n3ccnc3-c3cccnc3)ncc1N(C)C2=O
Given back: > 50 µM

Asked: Field: IC50 (Serine/threonine-protein kinase PLK1 (Homo sapiens)). Entry: COc1cc(C(=O)NC2CCN(C)CC2)ccc1Nc1ncc2c(n1)N(C1CCCC1)CCC(=O)N2
Given back: 0.5 to 5 µM

Asked: Field: IC50 (Serine/threonine-protein kinase PLK1 (Homo sapiens)). Entry: CC1CN(C2CCCC2)c2nc(Nc3ccc(C(=O)NC4CCOCC4)c(Cl)c3)ncc2N(C)C1=O (racemic)
Given back: 0.5 to 5 µM

Asked: Field: IC50 (Serine/threonine-protein kinase PLK1 (Homo sapiens)). Entry: CC[C@@H]1C(=O)N(C)c2cnc(-n3cnc(C(=O)NC)c3)nc2N1C1CCCC1
Given back: < 1 µM

Asked: Field: IC50 (Serine/threonine-protein kinase PLK1 (Homo sapiens)). Entry: OCc1cccc(-c2ccnc3[nH]cc(Sc4ccccc4)c23)c1
Given back: ≤ 10 µM

Asked: Field: IC50 (Serine/threonine-protein kinase PLK1 (Homo sapiens)). Entry: CCCCN1CCC(=O)N(C)c2cnc(Nc3ccc(C(=O)NC4CCN(C)CC4)cc3OC)nc21
Given back: < 0.5 µM

Asked: Field: IC50 (Serine/threonine-protein kinase PLK1 (Homo sapiens)). Entry: CC[C@@H]1C(=O)N(C)c2cnc(-n3ccnc3N3CCOC3=O)nc2N1C1CCCC1
Given back: 1 to 10 µM

Asked: Field: IC50 (Serine/threonine-protein kinase PLK1 (Homo sapiens)). Entry: CC(C)(C)OC(=O)NC(C)(C)C(=O)NC1CCN(Cc2ccc3ncn(-c4nc(-c5cccc(Cl)c5)c(C(N)=O)s4)c3c2)CC1
Given back: 5.27 µM

Asked: Field: IC50 (Serine/threonine-protein kinase PLK1 (Homo sapiens)). Entry: O=C1Nc2cc(Cl)ccc2/C1=C\c1ccc2cn[nH]c2c1
Given back: 5 to 50 µM

Asked: Field: IC50 (Serine/threonine-protein kinase PLK1 (Homo sapiens)). Entry: NC(=O)c1sc(-n2cnc3ccc(OC4CCCCC4)cc32)nc1-c1cccc(Cl)c1
Given back: 0.66 µM

Asked: Field: IC50 (Serine/threonine-protein kinase PLK1 (Homo sapiens)). Entry: Nc1ccc2c(c1)/C(=C\c1ccc3[nH]nnc3c1)C(=O)N2
Given back: 5 to 50 µM

Asked: Field: IC50 (Serine/threonine-protein kinase PLK1 (Homo sapiens)). Entry: CC(=O)Nc1cccc2c1NC(=O)/C2=C/c1ccc2cn[nH]c2c1
Given back: > 50 µM

Asked: Field: IC50 (Serine/threonine-protein kinase PLK1 (Homo sapiens)). Entry: CC[C@@H]1C(=O)N(C)c2cnc(Nc3ccc(C(=O)NC4CCN(CC(=O)N[C@@H](CC(C)C)C(=O)O)CC4)cc3OC)nc2N1C1CCCC1
Given back: < 0.1 µM

Asked: Field: IC50 (Serine/threonine-protein kinase PLK1 (Homo sapiens)). Entry: NC(=O)c1sc(-n2cnc3ccc(CN4CCOCC4)cc32)nc1-c1cccc(Cl)c1
Given back: 0.306 µM

Asked: Field: IC50 (Serine/threonine-protein kinase PLK1 (Homo sapiens)). Entry: COc1cc2ncn(-c3nc(-c4ccccc4O)c(C(=O)O)s3)c2cc1OC
Given back: 0.275 µM

Asked: Field: IC50 (Serine/threonine-protein kinase PLK1 (Homo sapiens)). Entry: COc1cc2ncn(-c3nc(-c4cccc(F)c4)c(C(=O)O)s3)c2cc1OC
Given back: 0.069 µM

Asked: Field: IC50 (Serine/threonine-protein kinase PLK1 (Homo sapiens)). Entry: CC[C@@H]1C(=O)N(C)c2cnc(Nc3ccc(CCCCCC(=O)N[C@@H](CC(C)C)C(=O)O)cc3F)nc2N1C1CCCC1
Given back: < 0.1 µM
